MEASUREMENT_NOTES: Formation of a low-solubility polymer/drug complex (gel) on mixing polyanion sodium salt with the salt of the active ingredient
RUN_PARAMETERS: mixing sodium salt of CMC-M (medium viscosity carboxymethylcellulose) and salt of the active ingredient
QUANTITY_NAME: complex of low solubility forms (yes/no), polymer CMC-M

C[C@H]1c2cccc(O)c2C(=O)C2=C(O)[C@]3(O)C(=O)C(C(N)=O)=C(O)[C@@H](N(C)C)[C@@H]3[C@@H](O)[C@@H]21; yes
CCCCOc1cc(C(=O)NCCN(CC)CC)c2ccccc2n1; yes
CCCCNc1ccc(C(=O)OCCN(C)C)cc1; yes
CCC(=O)C(CC(C)N(C)C)(c1ccccc1)c1ccccc1 (stereo not drawn); no
COc1cccc2c1C(=O)c1c(O)c3c(c(O)c1C2=O)C[C@@](O)(C(=O)CO)C[C@@H]3O[C@H]1C[C@H](N)[C@H](O)[C@H](C)O1; yes
O=C1CC[C@@]2(O)[C@H]3Cc4ccc(O)c5c4[C@@]2(CCN3CC2CC2)[C@H]1O5 [Naltrexone]; no

// data source = patent US20070110804A1
